assay: inhibitors of TNFa-induced NFkB p65 translocation, primary screen, imaging, HUVEC, MLSMR starter and 10KST1 sets (AID 438); conditions: HUVEC TNFa-induced p65 nuclear translocation; measured here: nuclei count (cytotoxicity indicator), at 2.08 µM;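 note: compound added about 3h40 before a 20 min TNFalpha stimulation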
reported-property: cell count
// keep it numeric: no unit symbol after the value

Q: Which cell count value is on record for CCOc1cc(C2Nc3ccccc3C(=O)N2c2ccccc2OC)ccc1O (configuration not stated) ?
Result: 587

Q: Which cell count value is on record for "Cc1nnc2n(Cc3ccccc3)c(=O)c3c4c(sc3n12)CN(Cc1ccccc1)CC4" ?
Result: 628

Q: Which cell count value is on record for "CN(C)CCNc1nc(-c2ccco2)c2c(c1C#N)CC(C)(C)OC2" ?
Result: 621

Q: Which cell count value is on record for O=C1C=C(O)CC(c2ccco2)C1 (configuration not stated) ?
Result: 558

Q: Which cell count value is on record for "N#C/C(=N\O)c1nc(-c2ccccc2)cs1" ?
Result: 302

Q: Which cell count value is on record for CCOC(=O)CSC1=C(C#N)C(c2ccc(C)cc2)C(C(=O)OC)C(=O)N1 (configuration not stated) ?
Result: 643

Q: Which cell count value is on record for "CC(C)Oc1ccc(C(=O)CCN2CCCCC2)cc1" ?
Result: 457

Q: Which cell count value is on record for CC1(C)CC(=O)C2=C(C1)N(CC1CCCO1)C(=O)C2(O)C(F)(F)F (configuration not stated) ?
Result: 503

Q: Which cell count value is on record for "COc1ccc(CN2CCC(=O)NC2=O)cc1" ?
Result: 670

Q: Which cell count value is on record for "CNC(=O)c1cc2c(ccc3ccccc32)oc1=N" ?
Result: 498

Q: Which cell count value is on record for C=CCc1ccccc1OCC(O)CNC(C)C (configuration not stated) ?
Result: 628

Q: Which cell count value is on record for "c1coc(-c2nnc3sc(Cc4cccs4)nn23)c1" ?
Result: 593
